Tested on: TNF-alpha
Assay details: TNF-alpha secretion by human monocytes (U937 line) stimulated by phorbol ester (PMA)
Format: cell-based
Condition summary: Homo sapiens, U-937, read-out: IC50 (50% reduction in the secretion, caused by PMA); reference molecule, 7 concentrations; U937, PMA 10 nM, 48 hours
Measure name: pIC50
Schema: pIC50 number; meaning minus log10 of the concentration expressed in molar units.

# input Which measured pIC50 value corresponds to C[C@@H]1C[C@H]2[C@@H]3CCC4=CC(=O)C=C[C@]4(C)[C@@]3(F)[C@@H](O)C[C@]2(C)[C@@]1(O)C(=O)CO [dexamethasone, reference compound] ?
# output 8.40
